Reported pIC50 values follow for various molecules
# Tested on: MCF7
# method.description: Antiproliferative activity against human MCF7 cells after 48 hrs by MTT assay
# Format: functional, cell-based
# condition.info: MCF7, 48 h
pIC50 here: minus log base 10 of the concentration, concentration in moles per litre.

[
  {
    "chem.smiles": "COc1cc(/C=C/C(C)=O)ccc1OCc1cn(-c2ccc(C=O)cc2)nn1",
    "pIC50": 4.06
  },
  {
    "chem.smiles": "COc1ccc(-n2cc(COc3ccc(/C=C/C(C)=O)cc3OC)nn2)cc1",
    "pIC50": 4.47
  },
  {
    "chem.smiles": "COc1cc(/C=C/C(C)=O)ccc1OCc1cn(-c2ccccc2CO)nn1",
    "pIC50": 4.18
  },
  {
    "chem.smiles": "COc1cccc(-n2cc(COc3ccc(/C=C/C(C)=O)cc3OC)nn2)c1",
    "pIC50": 5.74
  }
]

Now for another entry.
Considering COc1cc(/C=C/C(C)=O)ccc1OCc1cn(-c2ccccc2Cl)nn1 , its pIC50 with MCF7 was recorded as 5.66

* * *

# Tested on: MCF7
# method.description: Antiproliferative activity against human MCF7 cells after 48 hrs by MTT assay
# Type: functional, cell-based
# condition.info: MCF7, 48 h
# note: exactly 70 µM is not below, so it is no; use yes for IC50 strictly under it

Known results for compounds:
[
  {
    "compound": "CCOC(=O)c1ccc(-n2cc(COc3ccc(/C=C/C(C)=O)cc3OC)nn2)cc1",
    "group.label": "no"
  },
  {
    "compound": "COc1cc(/C=C/C(C)=O)ccc1OCc1cn(-c2ccccc2O)nn1",
    "group.label": "no"
  },
  {
    "compound": "COc1cc(/C=C/C(C)=O)ccc1OCc1cn(-c2ccc(-c3ccccc3)cc2)nn1",
    "group.label": "yes"
  },
  {
    "compound": "COc1cc(/C=C/C(C)=O)ccc1OCc1cn(-c2ccc(/N=N/c3ccccc3)cc2)nn1",
    "group.label": "no"
  },
  {
    "compound": "COc1cc(/C=C/C(C)=O)ccc1OCc1cn(-c2ccc(NC(=O)c3ccccc3)cc2)nn1",
    "group.label": "no"
  },
  {
    "compound": "COc1cc(/C=C/C(C)=O)ccc1OCc1cn(-c2cc(F)cc(Br)c2)nn1",
    "group.label": "yes"
  },
  {
    "compound": "COc1cc(/C=C/C(C)=O)ccc1OCc1cn(-c2ccc(C)cc2)nn1",
    "group.label": "no"
  },
  {
    "compound": "COc1cc(/C=C/C(C)=O)ccc1O [DEHYDROZINGERONE]",
    "group.label": "yes"
  },
  {
    "compound": "COc1cc(/C=C/C(C)=O)ccc1OCc1cn(-c2c(F)cccc2F)nn1",
    "group.label": "yes"
  },
  {
    "compound": "COc1cc(/C=C/C(C)=O)ccc1OCc1cn(-c2ccc([N+](=O)[O-])cc2)nn1",
    "group.label": "no"
  }
]

Strictly below 70 µM: is that where IC50 of COc1cc(/C=C/C(C)=O)ccc1OCc1cn(-c2ccc(C(F)(F)F)c(C(F)(F)F)c2)nn1 sits?
no

Strictly below 70 µM: is that where IC50 of COc1cc(/C=C/C(C)=O)ccc1OCc1cn(-c2c(Cl)cccc2Cl)nn1 sits?
yes

Strictly below 70 µM: is that where IC50 of COc1cc(/C=C/C(C)=O)ccc1OCc1cn(-c2ccccc2OC)nn1 sits?
yes

Strictly below 70 µM: is that where IC50 of C#CCOc1ccc(/C=C/C(C)=O)cc1OC sits?
yes

Strictly below 70 µM: is that where IC50 of COc1cc(/C=C/C(C)=O)ccc1OCc1cn(-c2ccccc2)nn1 sits?
no

// data source = ChEMBL document CHEMBL4261549
